ASSAY_TARGET: Full-length wild type HIV-1 integrase (SF1) (Human immunodeficiency virus type 1 group M subtype B)
Construct: made in house; host or cells: E. coli BL21 (DE3)
PROCEDURE_TEXT: Integrase strand-transfer scintillation proximity assay
Format: biochemical
CONDITION_SET: strand transfer, 50 min at 37° C., 246 nM integrase, 50 nM host DNA; read-out: IC50
// log10 of IC50 lookup, one value per entry
Recall that a logarithmic scale is used here: each number is log10 of IC50 in nM.

> print(dat)
                                   compound  reported
1  C[C@@H](NCc1cn(Cc2ccc(F)cc2F)c2cnc(C(=O)NO)cc12)C1CCCCC1 [Example 76]      2.60
2  Cc1nnc(CCNCc2cn(Cc3ccc(F)cc3F)c3cnc(C(=O)NO)cc23)[nH]1 [Example 100]      2.43
3  O=C(NO)c1cc2c(CNC3CCS(=O)(=O)C3)cn(Cc3ccc(F)cc3F)c2cn1 (stereo not drawn) [Example 12]      1.56
4  O=C(NO)c1cc2ncn(Cc3ccc(F)cc3)c2cn1 [Example 21]      2.71
5  CN(CCS(C)(=O)=O)Cc1cn(Cc2ccc(F)cc2F)c2cnc(C(=O)NO)cc12 [Example 95]      2.10
6  O=C(NO)c1cc2c(CNCCN3CCCC3)cn(Cc3ccc(F)cc3F)c2cn1 [Example 57]      2.73

Bench note: what log10 of IC50 did O=C(NO)c1cc2c(CNCc3ccc(C(F)(F)F)nc3)cn(Cc3ccc(F)cc3F)c2cn1 [Example 88] show?
2.38

Bench note: what log10 of IC50 did COCCOCc1cn(Cc2ccc(F)cc2)c2cnc(C(=O)NOC)cc12 [Example 109] show?
1.80

Bench note: what log10 of IC50 did CN(C)CC(C)(C)CNCc1cn(Cc2ccc(F)cc2F)c2cnc(C(=O)NO)cc12 [Example 61] show?
2.96
